Source of measurements: patent US10112926B2

Parameter IC50, tested on PI 4-kinase beta (Homo sapiens (Human), UniProt Q9UBF8), listed per item.
Sequence (Q9UBF8 whole entry): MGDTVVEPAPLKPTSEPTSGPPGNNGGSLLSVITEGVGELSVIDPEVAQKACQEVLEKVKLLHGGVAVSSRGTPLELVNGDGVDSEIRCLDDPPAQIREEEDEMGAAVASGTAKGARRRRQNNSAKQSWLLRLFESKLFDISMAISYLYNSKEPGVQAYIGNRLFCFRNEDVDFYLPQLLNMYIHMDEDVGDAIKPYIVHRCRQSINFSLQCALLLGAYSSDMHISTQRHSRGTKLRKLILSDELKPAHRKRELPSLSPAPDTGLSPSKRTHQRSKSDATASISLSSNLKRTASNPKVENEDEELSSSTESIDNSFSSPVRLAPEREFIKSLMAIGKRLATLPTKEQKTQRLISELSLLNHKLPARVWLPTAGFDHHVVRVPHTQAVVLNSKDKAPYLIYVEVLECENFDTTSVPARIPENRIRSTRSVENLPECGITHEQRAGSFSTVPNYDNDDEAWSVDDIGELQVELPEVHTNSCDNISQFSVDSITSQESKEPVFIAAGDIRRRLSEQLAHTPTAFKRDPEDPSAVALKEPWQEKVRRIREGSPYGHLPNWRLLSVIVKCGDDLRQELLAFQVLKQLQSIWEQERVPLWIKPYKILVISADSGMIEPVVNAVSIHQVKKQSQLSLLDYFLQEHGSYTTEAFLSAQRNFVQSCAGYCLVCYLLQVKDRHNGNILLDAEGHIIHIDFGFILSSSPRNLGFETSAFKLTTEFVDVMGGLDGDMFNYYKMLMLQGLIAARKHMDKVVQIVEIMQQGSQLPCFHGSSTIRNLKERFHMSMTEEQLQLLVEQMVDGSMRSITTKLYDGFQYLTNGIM
Reported Endpoint: IC50

Structure As Smiles	Test Result
Cc1ccc(S(=O)(=O)NCCC(C)(C)O)cc1-c1cnc(N)c(-c2ccncc2)c1	> 9.1 µM
Cc1noc(-c2cc(-c3cc(S(=O)(=O)NCC4(O)COC4)ccc3C)cnc2N)n1	> 10 µM
Cc1nc(-c2cc(-c3cc(S(=O)(=O)NCC(C)(C)O)ccc3C)cnc2N)cs1	> 10 µM

---

Target Entity: UniProtKB Q9UBF8
Counter-ions that a name gives are not always drawn.

Compound	Bound Sign	IC50 (µM)
Cc1ccc(S(=O)(=O)NCC(C)(C)O)cc1-c1cnc(N)c(-n2cncn2)c1 [Example 81, hydrochloride]	>	9.78
Cc1noc(-c2cc(-c3cc(S(=O)(=O)NCC(C)(C)O)c(F)cc3C)cnc2N)n1 [Example 85]	>	10
Cc1ncc(-c2cc(-c3cc(S(=O)(=O)NCC(C)(C)CO)ccc3C)cnc2N)s1 [Example 83.4]	=	1.3
Cc1ncc(-c2cc(-c3cc(S(=O)(=O)NCC(C)(C)CO)ccc3C)cnc2N)o1 [Example 104.2]	=	1.1
Cc1cc(-c2cc(-c3cc(S(=O)(=O)NC4CCOC4=O)ccc3C)cnc2N)on1 (stereo not drawn) [Example 19.2, trifluoroacetic acid salt]	=	3.7
Cc1ccc(S(=O)(=O)NCCC(C)(C)O)cc1-c1cnc(N)c(-c2cnn(C)n2)c1 [Example 106]	=	6.4
Cc1noc(-c2cc(-c3cc(S(=O)(=O)NOC(C)C)ccc3C)cnc2N)n1 [Example 45]	=	7.4
Cc1ncc(-c2cc(-c3cc(S(=O)(=O)NCC4(CO)CCOCC4)ccc3C)cnc2N)o1 [Example 104.13]	=	3.4
Cc1cc(-c2cc(-c3cc(S(=O)(=O)N4CC5(CCOC5)C4)ccc3C)cnc2N)on1 [Example 19.1, trifluoroacetic acid salt]	=	4
Cc1noc(-c2cc(-c3cc(S(=O)(=O)NC[C@H]4CCCO4)ccc3C)cnc2N)n1 [Example 37.5]	=	8
Cc1ncc(-c2cc(-c3cc(S(=O)(=O)N[C@H]4CCC[C@H](O)C4)ccc3C)cnc2N)o1 [Example 112]	=	0.73
Cc1ccc(S(=O)(=O)NCC(C)(C)O)cc1-c1cnc(N)c(-c2cnoc2C)c1 [Example 62]	=	6.6
Cc1noc(-c2cc(-c3cc(S(=O)(=O)NCC4(O)CC4)ccc3C)cnc2N)n1 [Example 37.19]	=	8.6
COC1(C)CN(S(=O)(=O)c2ccc(C)c(-c3cnc(N)c(-c4cc(C)no4)c3)c2)C1 [Example 37.20]	=	5.1
Cc1ccc(S(=O)(=O)NCC(C)(C)O)cc1-c1cnc(N)c(-c2cc(C(=O)N3CCOCC3)no2)c1 [Example 42]	=	2.9

---

Reported pIC50 for target or system PI 4-kinase beta (Homo sapiens (Human), UniProt Q9UBF8), by entry.
pIC50: −log10 of the molar value.

Compound	pIC50
CONS(=O)(=O)c1ccc(C)c(-c2cnc(N)c(-c3nc(C)no3)c2)c1 [Example 46]	< 5.00
Cc1noc(-c2cc(-c3cc(S(=O)(=O)NCC4(O)CCOCC4)ccc3C)cnc2N)n1 [Example 51]	< 5.00
Cc1noc(-c2cc(-c3cc(S(=O)(=O)NCC4CCCO4)ccc3C)cnc2N)n1 (stereo not shown) [Example 57]	< 5.00
Cc1noc(-c2cc(-c3cc(S(=O)(=O)NCC4(CO)CCOCC4)ccc3C)cnc2N)n1 [Example 37.10]	< 5.00
